Recorded measurements of kd, one per entry
target_entity: T1, GPNMB (Homo sapiens, UniProt Q14956)
T1 construct: made in house; host or cells: HEK 293
T1 sequence (Q14956 23-492): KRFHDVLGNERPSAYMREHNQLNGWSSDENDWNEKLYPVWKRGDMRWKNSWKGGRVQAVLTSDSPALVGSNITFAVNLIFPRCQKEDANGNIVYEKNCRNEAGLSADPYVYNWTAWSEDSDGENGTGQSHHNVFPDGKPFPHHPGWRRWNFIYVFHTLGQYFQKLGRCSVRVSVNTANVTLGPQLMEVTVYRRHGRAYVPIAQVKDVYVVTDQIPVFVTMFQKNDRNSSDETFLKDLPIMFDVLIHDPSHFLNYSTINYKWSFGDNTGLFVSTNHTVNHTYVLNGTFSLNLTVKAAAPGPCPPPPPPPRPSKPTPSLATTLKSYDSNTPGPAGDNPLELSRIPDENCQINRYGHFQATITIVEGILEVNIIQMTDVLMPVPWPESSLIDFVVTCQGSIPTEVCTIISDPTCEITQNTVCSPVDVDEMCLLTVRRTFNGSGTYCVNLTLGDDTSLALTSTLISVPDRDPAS
test: BiaCore 2000 biosensor binding of hybridoma supernatant mAb to GPNMB
details: mAb captured on protein A, GPNMB 880 nM, 1:1 kinetic model
measurement_name: kd (s⁻¹)

molecule	measurement_name	result_number
Mab1.7.1: human anti-GPNMB antibody; VH SEQ ID NO: 56, VL SEQ ID NO: 65 (antibody, listed as Homo sapiens, V domains shown) VH: QVQLQESGPGLVKPSQTLSLTCTVSGGSISSANYYWTWIRQHPGKGLEWIGYIYYSGSTYCNPSLKSRVIISVDTSKNQFSLKLSSVTAADTAVYYCARGYNWNYFDYWGQGTLVTVSSA VL: DIVMTQSPATLSVSPGERATLSCRASQSVSSNLAWYQERPGQAPRLLIYGASTRATGIPARFSGSGSGTEFTLTISSLQSEDFAVYYCQQYNKWPPWTFGQGTKVEIER	kd	0.00144
Mab1.10.2: human anti-GPNMB antibody; VH SEQ ID NO: 2, VL SEQ ID NO: 11 (antibody, listed as Homo sapiens, V domains shown) VH: QVQLQESGPGLVKPSETLSLTCTVSGDSISNYYWSWIRQPPGKGLEWIGYFYYSGSTNYNPSLKSRVTISVDTSKNQFSLKLSSVTAADTAVYYCARDRGWADYWGQGTLVTVSSA VL: EIVLTQSPGTLSLSPGERATLSCRTSQSISSSYLAWYQQKPGQVPRLLIYGASSRATGIPDRFSGSGSGTDFTLTISRLEPEDFAVYYCQQYGSSITFGQGTRLEIKR	kd	0.000466
Mab1.15.1 (protein, listed as Homo sapiens) QVQLQESGPGLVKPSQTLSLTCTVSGGSISSFNYYWSWIRHHPGKGLEWIGYIYYSGSTYSNPSLKSRVTISVDTSKNQFSLTLSSVTAADTAVYYCARGYNWNYFDYWGQGTLVTVSSA	kd	0.000855
Mab1.2.2: human anti-GPNMB antibody; VH SEQ ID NO: 38, VL SEQ ID NO: 47 (antibody, listed as Homo sapiens, V domains shown) VH: ITLKESGPTLVKPTQTLTLTCTFSGFSLSAGGVGVGWIRQPPGKALEWLALIYWNDDKRYSPSLRSRLTITKDTSKNQVVLTITNMDPVDTATYYCAHSHYDYDWGSYFDYWGQGTLVTVSSA VL: DIVMTQTPLSLPVTPGEPASISCRSSQSLLDSDDGNTYLDWYLQKPGQSPQLLIYTLSYRASGVPDRFSGSGSGTDFTLNISRVEAEDVGVYYCMQRIEFPITFGQGTRLEIKR	kd	0.00089
